Cited source: the supplement of paper PMC9732359

Assay: protein stability index of a GFP-peptide fusion (yeast GPS) (PSI 1-4); higher = more stable; sorted into four equal gates, so the index is relative within each strain
Details: san1∆
readoutLabel: protein stability index
Respond using a number only.

INSERT INTO measurements (sequencerecord, numericreadout) VALUES
  ('AGLTRSDRSLSEDLFAD [BRR2]', 3.56),
  ('QCCEFMTMLTPNYLHLV [YML103C/NUP188]', 1.66),
  ('KKRFDEFMAGFNIISMT [SMC4]', 2.87);

From here, focus on the item given below.
Consider the sequence TFANPNRTFTDPPFRIE [TAF14] and give its measured protein stability index.
2.7

---

Assay: protein stability index of a GFP-peptide fusion (yeast GPS) (PSI 1-4); higher = more stable; sorted into four equal gates, so the index is relative within each strain
Conditions: pdr5∆
Measured protein stability index, listed per entry.
Returns: the value as a bare number; no unit string appended.

Solved cases below.
INSERT INTO assay_data (sequencerecord, numericreadout) VALUES
  ('EIENATKDIFPLQNIHV [RPS1A]', 2.36),
  ('ALERNWPIVNSKVYFNN [RPN12]', 1.7),
  ('LCVLDYDNIDIQRGRIL [RPB7]', 1.93),
  ('IKRTDEGGEAEFIFGTY [ARP7]', 3.3),
  ('NAYASFLQRQGKLEVPG [RPS19A]', 3.24);

Give the measured protein stability index of ARQFGYVILTTSAGIMD [RPS22A] .
1.33

State the recorded protein stability index for this entry: EDHDVHSNESSNETIGE [IRR1]
3.2

---

Test: protein stability index of a GFP-peptide fusion (yeast GPS) (PSI 1-4); higher = more stable; sorted into four equal gates, so the index is relative within each strain
Conditions: pdr5∆
readoutLabel: protein stability index

Before answering, review these 5 worked examples.
INSERT INTO measurements (sequencerecord, readoutlabel, result) VALUES
  ('TLDDLVTKWTNQLTESA [YJL041W/NSP1]', 'protein stability index', 3),
  ('NAGTNDNSFNELTDNMS [MCD1]', 'protein stability index', 3.13),
  ('TSTNGDSENNEENSSSN [RGR1]', 'protein stability index', 3.18),
  ('KSLDAETEAEEDHMLKK [RPO21]', 'protein stability index', 2.56),
  ('DFDGDEMNLHVPQSEET [RPO21]', 'protein stability index', 3.12);

Item ATVDEFPLCVHLVSNEL [RPL10] has what recorded protein stability index?
2.93

If you can, please state the reported protein stability index value of ADVLVDRVVSSDSLDIA [SRP72] .
1.58

---

Experiment: protein stability index of a GFP-peptide fusion (yeast GPS) (PSI 1-4); higher = more stable; sorted into four equal gates, so the index is relative within each strain
Conditions: san1∆
Returns satisfied if the recorded protein stability index is greater than or equal to 3, and not satisfied otherwise.

INSERT INTO results (sequencerecord, labelclass) VALUES
  ('KSKAEELTQVPSARQKY [UBP6]', 'not satisfied');

I'd appreciate it if you could say whether LEMLKPCVEDGFVIQDR [RPB2] has protein stability index at least equal to 3.
satisfied

Does FYMKKDAVEGVSECIIL [RPO31] have a reported protein stability index of at least 3?
not satisfied

In plain terms: is recorded protein stability index at least 3 for SGTFYRYNAKAIGSGSE [PUP2] ?
satisfied

Item PTTVSYIFCISRTIGMV [SCL1] with protein stability index of 3 or above?
not satisfied

Confirm if protein stability index reported for the sequence NYEIVFDTVSNKLFTEP [YMR129W/POM152] is 3 or above.
not satisfied

Is protein stability index at least 3? Consider QRSNISTAIKSLVALGI [CDC53]
not satisfied

Is protein stability index for QRHIAVGKQIVNIPSFM [RPS9A] at or above 3?
not satisfied

---

Assay: protein stability index of a GFP-peptide fusion (yeast GPS) (PSI 1-4); higher = more stable; sorted into four equal gates, so the index is relative within each strain
Settings: ubr1∆
readoutLabel: protein stability index
Form rule: numeric answer, no unit written next to it.

INSERT INTO results (sequencerecord, numericreadout) VALUES
  ('ELGEQKCQELVTNIRRI [RRP46]', 1.98);

Bench note: what protein stability index did PRVKGFKMNEIVPLHSP [SEC65] show?
2.87

---

Test: protein stability index of a GFP-peptide fusion (yeast GPS) (PSI 1-4); higher = more stable; sorted into four equal gates, so the index is relative within each strain
Conditions: pdr5∆
Each entry below carries its reported protein stability index.
# print the numeric value only

Some solved cases for reference:
INSERT INTO results (sequencerecord, numericreadout) VALUES
  ('TNTFEGSGNNNEIESRQ [SNU114]', 3.48),
  ('IILGTNLYDGAEHKYMP [BRR2]', 3.47),
  ('LEASYSKSYTPRKLVLS [SMC4]', 2.52),
  ('KIWSVKDGSNPRTLIGH [RPN14]', 3.01);

Can you share its protein stability index? I mean this sequence: GAAANNNDQKRQQAYKT [YJL041W/NSP1]
3.02

Entry CKQFPKLSCIQLNCIDT [SRB8] : reported protein stability index = ?
1.95

Could you tell me which protein stability index is on file for DSIGSTRVEGSGGGDSE [RPT6] ?
2.65

Entry PEGLLKSLWDYVKKNTE [TAF14] : reported protein stability index = ?
2.12

Using the record for VEEYTWSSLLNEGLVEY [RPB2] , report its protein stability index.
3.2

Can you share its protein stability index? I mean this sequence: IKLDIVVGQNQLIDQFE [SNF5]
2.07

For ENALIELKNELAKTKEN [YIL149C/MLP2] , what is its reported protein stability index?
2.97

Tell me the measured protein stability index of RAPQQSVLQLFQSVQLN [SMC2] , please.
1.98

Need protein stability index, item IHGELKTYKEGINKNEE [SMC1]
3.09

Please give the measured protein stability index for this sequence: YSTLKELLEYSDDIAEN [YCG1]
2.84

Find the recorded protein stability index belonging to GFSTGIGDTIADGPTMR [RPO21] and report it.
3.15

---

Assay: protein stability index of a GFP-peptide fusion (yeast GPS) (PSI 1-4); higher = more stable; sorted into four equal gates, so the index is relative within each strain
Conditions: doa10∆
// label = Yes if protein stability index is not less than 3, otherwise No

Previously resolved entries follow.
INSERT INTO measurements (sequencerecord, labelclass) VALUES
  ('ASTPSIRPDGRLPHQFR [RRP42]', 'No'),
  ('MELLTQMDGFDNLGQTK [RPT4]', 'Yes'),
  ('MNVQDRRRLLGPAAAKP [MTR3]', 'Yes'),
  ('SAGDDGKVRLWKATYSN [YGL100W/SEH1]', 'No'),
  ('GLAVGLALINYGRQELA [RPN2]', 'No');

Threshold query (protein stability index >= 3) on TSRKALEEVSLKWIDTA [RPL3]
No

For this sequence, is measured protein stability index 3 or higher? EARLFNIWGTVRTNRFD [ECM29]
No

Does PAPINSLSRDFVMKTRR [SNU114] have a reported protein stability index of at least 3?
Yes

Assess whether reported protein stability index for KDQYVPEVSALDLSRSN [RPS17A] sits at 3 or higher.
No

Is it the case that ELQGYIELSVPDRQSMD [SRB5] has protein stability index reaching or exceeding 3?
No

# bool: protein stability index of ELGEQKCQELVTNIRRI [RRP46] >= 3
No

protein stability index >= 3 for EQLKEQMEDMEESINEF [SMC4] ?
Yes

---

Quick list: protein stability index per entry.
Assay: protein stability index of a GFP-peptide fusion (yeast GPS) (PSI 1-4); higher = more stable; sorted into four equal gates, so the index is relative within each strain
Conditions: doa10∆
# answer = number (no unit)

Use the examples below as a reference point.
INSERT INTO assay_data (sequencerecord, readoutlabel, numericreadout) VALUES
  ('SPMLKRIKITANNNMND [GRR1]', 'protein stability index', 2.36),
  ('RLRQGAAKLRTLDYAER [RPL2A]', 'protein stability index', 1.61),
  ('QLDDEDFDLLNKTLTFE [FAS1]', 'protein stability index', 3.38),
  ('VVSCSQHGFEVQVGPMK [RPB7]', 'protein stability index', 3.09),
  ('AKLLQENDTTLVKTKEL [FAS1]', 'protein stability index', 2.66);

Recorded protein stability index for EVIFTDVLKSQANTEPE [MCD1] , please?
3.07

Any idea what protein stability index was measured for RLYLKDQTNHIESDSIL [ECM29] ?
2.8

Fill blank: measured protein stability index of the sequence VEVKDASLVDYVQVRQP [RPS5] is ____.
2.9

Using the record for LNESRSQHKKILEELDF [SMC3] , report its protein stability index.
3.38

Param item = KFQETLLRQKIEQCKHP [ISW2] ; retrieve measured protein stability index.
1.34

Could you share which protein stability index value was measured for AAAGGDAAAEEEKEEEA [RPP1B] ?
3.32

Item VFQAKMMDMLKQTGRDQ [RPN11] has what recorded protein stability index?
2.56

protein stability index lookup needed for IIFASTKLGFTFTIKEF [SNU114] , thanks.
2.37

Look up protein stability index for this sequence: GINKIPPKPRKVLQLLR [RPL7A]
3.06

# query: protein stability index of entry TNLYKLKEERAIEPETF [PUP3]
3.16
